experimental_target: human RXRα ligand binding domain (Gal4 hybrid receptor) (Homo sapiens)
Sequence (P19793 227-458 limits assumed): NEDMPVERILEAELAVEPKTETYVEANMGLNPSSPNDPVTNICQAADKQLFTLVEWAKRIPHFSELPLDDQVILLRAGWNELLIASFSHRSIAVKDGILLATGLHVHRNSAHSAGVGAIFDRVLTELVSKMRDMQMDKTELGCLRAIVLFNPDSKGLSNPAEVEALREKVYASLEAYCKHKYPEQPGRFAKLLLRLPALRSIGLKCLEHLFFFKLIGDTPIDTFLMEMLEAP
protocol_description: Gal4 hybrid reporter gene assay RXRα
experimental_conditions: HEK293T cells, n ≥ 4, read-out: RXRα EC50 ± SEM
measured_quantity: pEC50
Answers are plain numbers, as −log10 of the molar value.

[
  {
    "compound": "CC(NC(=O)c1cccc(OCc2ccccc2)c1)c1ccccc1 (stereo not shown)",
    "pEC50": 4.78
  }
]

Your task in this section: give pEC50 for each listed record.
1. CC(C)(C)c1cc(/C=N/NC(=O)c2ccc(N)cc2)cc(C(C)(C)C)c1
2. CC/C(=N/NC(=S)Nc1ccc(Cl)cc1Cl)c1ccc(O)cc1
3. Cc1ccc(NC2=NC(=O)/C(=C/c3ccc(O)cc3)S2)cc1C

Marked response:
1: 4.49; 2: 4.63; 3: 4.77

----------
experimental_target: human RXRβ ligand binding domain (Gal4 hybrid receptor) (Homo sapiens, UniProt P28702)
Construct: expressed in transfected cells; host or cells: HEK293T
Sequence (P28702 296-529 limits assumed): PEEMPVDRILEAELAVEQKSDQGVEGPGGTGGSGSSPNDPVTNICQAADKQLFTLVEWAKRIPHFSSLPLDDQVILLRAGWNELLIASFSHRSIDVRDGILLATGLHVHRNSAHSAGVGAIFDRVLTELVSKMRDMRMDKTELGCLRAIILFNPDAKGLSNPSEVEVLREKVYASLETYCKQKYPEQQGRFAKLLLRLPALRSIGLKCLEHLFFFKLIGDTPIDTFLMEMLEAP
protocol_description: Gal4 hybrid reporter gene assay RXRβ
Type: cell-based
experimental_conditions: HEK293T cells, n ≥ 4, read-out: RXRβ EC50 ± SEM
measured_quantity: pEC50
One number for each entry, as −log10 of the molar value.

# example entries with known answers
[
  {
    "molecule": "CC(NC(=O)c1cccc(OCc2ccccc2)c1)c1ccccc1 (stereo not shown)",
    "experimental_target": "human RXRβ ligand binding domain (Gal4 hybrid receptor) (Homo sapiens, UniProt P28702)",
    "value_measured": 4.78
  },
  {
    "molecule": "CC(C)(C)c1cc(/C=N/NC(=O)c2ccc(N)cc2)cc(C(C)(C)C)c1",
    "experimental_target": "human RXRβ ligand binding domain (Gal4 hybrid receptor) (Homo sapiens, UniProt P28702)",
    "value_measured": 4.60
  },
  {
    "molecule": "CC/C(=N/NC(=S)Nc1ccc(Cl)cc1Cl)c1ccc(O)cc1",
    "experimental_target": "human RXRβ ligand binding domain (Gal4 hybrid receptor) (Homo sapiens, UniProt P28702)",
    "value_measured": 4.59
  }
]

Field pEC50 (entry Cc1ccc(NC2=NC(=O)/C(=C/c3ccc(O)cc3)S2)cc1C ) reads 4.83

----------
Task for the reader: assign each of the following compounds its reported EC50.
experimental_target: human RXRγ ligand binding domain (Gal4 hybrid receptor) (Homo sapiens, UniProt P48443)
Sequence (P48443 231-459 limits assumed): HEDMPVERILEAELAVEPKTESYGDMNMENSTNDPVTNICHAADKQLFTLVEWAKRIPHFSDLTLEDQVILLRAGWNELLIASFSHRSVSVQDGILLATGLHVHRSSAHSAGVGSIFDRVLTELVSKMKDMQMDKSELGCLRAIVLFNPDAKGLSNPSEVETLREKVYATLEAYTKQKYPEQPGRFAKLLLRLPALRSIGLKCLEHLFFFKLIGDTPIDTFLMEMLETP
protocol_description: Gal4 hybrid reporter gene assay RXRγ
experimental_conditions: HEK293T cells, n ≥ 4, read-out: RXRγ EC50 ± SEM
Numbers only, in µM.

Your task in this section: give EC50 for each listed record.
1. CC(C)(C)c1cc(/C=N/NC(=O)c2ccc(N)cc2)cc(C(C)(C)C)c1 [Compound 7]
2. CC/C(=N/NC(=S)Nc1ccc(Cl)cc1Cl)c1ccc(O)cc1 [Compound 8]
3. Cc1ccc(NC2=NC(=O)/C(=C/c3ccc(O)cc3)S2)cc1C [Compound 5]
4. CC(NC(=O)c1cccc(OCc2ccccc2)c1)c1ccccc1 (stereo not shown) [Compound 6]

Marked response:
28.2
32
15
16
